B1: Max-interacting protein 1, residues 70 to 120; numbered along this chain, P50539 (parent)
chain: STHNELEKNRRAHLRLCLERLKVLIPLGPDCTRHTTLGLLNKAKAHIKKLE

Variants of: B1
run_description: abundance fitness (aPCA) (normalised: wild type 0, dead -1); higher = more abundant; growth selection in yeast, the domain comes from the species named
protocol_conditions: Homo sapiens
Documented abundance fitness across a set of variants
reported_endpoint: abundance fitness

{"mutation_code": "E19K", "test_value": -0.467}
{"mutation_code": "T36K", "test_value": -0.091}
{"mutation_code": "S1D", "test_value": -0.475}
{"mutation_code": "G28S", "test_value": 0.003}
{"mutation_code": "H3M", "test_value": 0.152}
{"mutation_code": "G28E", "test_value": -0.38}
{"mutation_code": "N41Y", "test_value": -0.745}
{"mutation_code": "R15S", "test_value": -0.231}
{"mutation_code": "R15M", "test_value": -0.462}
{"mutation_code": "T36P", "test_value": -0.107}
{"mutation_code": "E7A", "test_value": -0.263}
{"mutation_code": "R11Q", "test_value": -0.281}
